- assayed system: UniProtKB A0A8C8ZSN9
- experiment description: Calcium assay, HEK293T cells expressing P. simus TAS2R16 with Gα16/gust44
- condition context: HEK293T, Gα16/gust44, Calcium 4

{"columns": ["chemical smiles", "EC50"],
 "data": [
  ["OCc1ccccc1O[C@@H]1O[C@H](CO)[C@@H](O)[C@H](O)[C@H]1O", "> 40 mM"]
]}

* * *

- assayed system: TAS2R16 P. simus L144S (Prolemur simus, UniProt A0A8C8ZSN9, L144S)
- Sequence (A0A8C8ZSN9 1-301 L144S): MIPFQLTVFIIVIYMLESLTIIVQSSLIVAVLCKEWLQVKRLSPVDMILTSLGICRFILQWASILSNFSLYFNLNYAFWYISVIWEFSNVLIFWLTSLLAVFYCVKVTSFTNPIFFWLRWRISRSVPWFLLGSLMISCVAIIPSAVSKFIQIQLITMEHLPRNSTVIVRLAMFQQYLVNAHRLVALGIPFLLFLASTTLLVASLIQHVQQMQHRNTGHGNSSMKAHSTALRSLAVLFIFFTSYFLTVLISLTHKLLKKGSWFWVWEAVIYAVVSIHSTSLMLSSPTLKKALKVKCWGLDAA
- experiment description: Calcium assay, single-point mutant P. simus L144S TAS2R16

{"columns": ["chemical smiles", "EC50, mM"],
 "data": [
  ["OCc1ccccc1O[C@@H]1O[C@H](CO)[C@@H](O)[C@H](O)[C@H]1O", 4.3]
]}
